- TEST_TARGET: FLK-1 receptor (Mus musculus, UniProt P35918)
- Construct: expressed in transfected cells; host or cells: NIH3T3 C7#3
- Sequence (P35918 20-1345): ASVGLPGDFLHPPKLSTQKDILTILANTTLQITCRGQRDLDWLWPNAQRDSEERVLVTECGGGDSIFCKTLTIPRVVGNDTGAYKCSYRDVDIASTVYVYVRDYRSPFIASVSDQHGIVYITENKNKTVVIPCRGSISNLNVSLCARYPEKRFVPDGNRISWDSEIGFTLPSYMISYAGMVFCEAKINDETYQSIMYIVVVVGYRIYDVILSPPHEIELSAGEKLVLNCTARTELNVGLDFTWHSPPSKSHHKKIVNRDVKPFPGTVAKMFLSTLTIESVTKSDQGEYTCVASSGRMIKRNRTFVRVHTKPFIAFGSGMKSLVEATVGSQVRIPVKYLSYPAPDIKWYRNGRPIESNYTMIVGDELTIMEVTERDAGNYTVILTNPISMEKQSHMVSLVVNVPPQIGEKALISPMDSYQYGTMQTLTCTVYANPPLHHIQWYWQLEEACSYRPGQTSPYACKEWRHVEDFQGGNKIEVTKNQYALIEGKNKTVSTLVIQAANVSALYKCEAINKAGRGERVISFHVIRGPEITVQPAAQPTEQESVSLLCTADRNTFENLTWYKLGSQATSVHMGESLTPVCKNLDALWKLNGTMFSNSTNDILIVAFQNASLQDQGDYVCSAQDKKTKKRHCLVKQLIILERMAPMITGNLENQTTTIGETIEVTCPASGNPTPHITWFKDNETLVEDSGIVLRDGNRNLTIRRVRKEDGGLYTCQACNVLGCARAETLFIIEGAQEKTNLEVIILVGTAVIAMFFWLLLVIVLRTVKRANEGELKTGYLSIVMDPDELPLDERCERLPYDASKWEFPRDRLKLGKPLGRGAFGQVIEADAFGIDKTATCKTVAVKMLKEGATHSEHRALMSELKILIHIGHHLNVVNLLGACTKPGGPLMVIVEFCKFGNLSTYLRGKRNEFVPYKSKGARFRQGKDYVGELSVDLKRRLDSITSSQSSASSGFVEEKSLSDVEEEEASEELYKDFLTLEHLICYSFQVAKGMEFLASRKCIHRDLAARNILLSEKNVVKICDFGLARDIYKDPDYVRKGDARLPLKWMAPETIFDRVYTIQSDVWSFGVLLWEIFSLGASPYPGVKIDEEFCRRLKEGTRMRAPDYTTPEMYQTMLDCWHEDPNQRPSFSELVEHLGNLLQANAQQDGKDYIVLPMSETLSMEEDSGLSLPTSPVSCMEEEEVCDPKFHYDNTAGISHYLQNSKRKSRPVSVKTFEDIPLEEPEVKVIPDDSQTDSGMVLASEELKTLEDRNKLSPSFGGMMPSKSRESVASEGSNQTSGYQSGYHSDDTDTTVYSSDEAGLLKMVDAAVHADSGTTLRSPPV
- TEST_PROTOCOL: FLK-1 ELISA (kinase activity of the FLK-1 receptor in FLK-1/NIH3T3 cells, VEGF stimulated)
- Assay type: cell-based
We begin with a simple list: items and their reported Fik Kinase %Inhibition.
OBSERVABLE: Fik Kinase %Inhibition (%)

* Cc1c(Br)ccc2c1C(=C1C(=O)Nc3ccccc31)C(=O)N2 | 12.9
* CCOc1ccccc1C=C1C(=O)Nc2ccc(S(=O)(=O)N3CCOCC3)cc21 | 2.2
* COC1CC(C=C2C(=O)Nc3ccc(CCCl)cc32)C(OC)O1 (stereo not drawn) | 11.3
* CC(C)(C)c1ccc(C=C2C(=O)Nc3c(Br)cc(Br)cc32)cc1 | 4.4
* O=C1Nc2ccccc2C1=C1C(=O)Nc2ccc(S(=O)(=O)Nc3ccc(C(F)(F)F)cc3)cc21 | 9.9
* CCOC(=O)c1[nH]c(C=C2C(=O)Nc3ccc(S(=O)(=O)N4CCOCC4)cc32)c(C(=O)OC)c1C | 8.3
* O=C1Nc2ccc(S(=O)(=O)Nc3ccc(C(F)(F)F)cc3)cc2C1=Cc1ccc2c(c1)Cc1ccccc1-2 | 6.6
* Cc1cc(C)c(C=C2C(=O)Nc3c(Br)cc(Br)cc32)[nH]1 | 4.8
* O=C1Nc2ccc(S(=O)(=O)Nc3ccc(C(F)(F)F)cc3)cc2C1=Cc1ccc([N+](=O)[O-])c(O)c1 | 55.2
* O=C1Nc2c(Br)cc(Br)cc2C1=Cc1ccc([N+](=O)[O-])s1 | 13.4
* Cc1ccc(C=C2C(=O)Nc3ccc(S(=O)(=O)N4CCOCC4)cc32)o1 | -6.9
* COc1cccc(OC)c1C=C1C(=O)Nc2ccc(Br)c(C)c21 | 10.5
* O=C1Nc2ccc(S(=O)(=O)N3CCOCC3)cc2C1=Cc1cc2c([nH]1)CCCC2 | 8.1
* CCc1cc(CC)c(C=C2C(=O)Nc3ccc(Br)c(C)c32)[nH]1 | -3.2
* O=C1Nc2c(Br)cc(Br)cc2C1=Cc1ccc(F)cc1Cl | 12.3
* CCN(CC)c1ccc(C=C2C(=O)Nc3c(Br)cc(Br)cc32)cc1 | -1.3
* O=C1Nc2ccc(I)cc2C1=Cc1ccc(Cl)c([N+](=O)[O-])c1 | 5.4
* COc1ccc(O)c(C=C2C(=O)Nc3ccc(S(=O)(=O)N4CCOCC4)cc32)c1 | -2.6

---

- TEST_TARGET: EGFR (Homo sapiens, UniProt P00533)
- Construct: Add 7 ug A431 cell lysate per well (EGFR source); endogenous in cells; host or cells: A431
- Sequence (P00533 25-1210): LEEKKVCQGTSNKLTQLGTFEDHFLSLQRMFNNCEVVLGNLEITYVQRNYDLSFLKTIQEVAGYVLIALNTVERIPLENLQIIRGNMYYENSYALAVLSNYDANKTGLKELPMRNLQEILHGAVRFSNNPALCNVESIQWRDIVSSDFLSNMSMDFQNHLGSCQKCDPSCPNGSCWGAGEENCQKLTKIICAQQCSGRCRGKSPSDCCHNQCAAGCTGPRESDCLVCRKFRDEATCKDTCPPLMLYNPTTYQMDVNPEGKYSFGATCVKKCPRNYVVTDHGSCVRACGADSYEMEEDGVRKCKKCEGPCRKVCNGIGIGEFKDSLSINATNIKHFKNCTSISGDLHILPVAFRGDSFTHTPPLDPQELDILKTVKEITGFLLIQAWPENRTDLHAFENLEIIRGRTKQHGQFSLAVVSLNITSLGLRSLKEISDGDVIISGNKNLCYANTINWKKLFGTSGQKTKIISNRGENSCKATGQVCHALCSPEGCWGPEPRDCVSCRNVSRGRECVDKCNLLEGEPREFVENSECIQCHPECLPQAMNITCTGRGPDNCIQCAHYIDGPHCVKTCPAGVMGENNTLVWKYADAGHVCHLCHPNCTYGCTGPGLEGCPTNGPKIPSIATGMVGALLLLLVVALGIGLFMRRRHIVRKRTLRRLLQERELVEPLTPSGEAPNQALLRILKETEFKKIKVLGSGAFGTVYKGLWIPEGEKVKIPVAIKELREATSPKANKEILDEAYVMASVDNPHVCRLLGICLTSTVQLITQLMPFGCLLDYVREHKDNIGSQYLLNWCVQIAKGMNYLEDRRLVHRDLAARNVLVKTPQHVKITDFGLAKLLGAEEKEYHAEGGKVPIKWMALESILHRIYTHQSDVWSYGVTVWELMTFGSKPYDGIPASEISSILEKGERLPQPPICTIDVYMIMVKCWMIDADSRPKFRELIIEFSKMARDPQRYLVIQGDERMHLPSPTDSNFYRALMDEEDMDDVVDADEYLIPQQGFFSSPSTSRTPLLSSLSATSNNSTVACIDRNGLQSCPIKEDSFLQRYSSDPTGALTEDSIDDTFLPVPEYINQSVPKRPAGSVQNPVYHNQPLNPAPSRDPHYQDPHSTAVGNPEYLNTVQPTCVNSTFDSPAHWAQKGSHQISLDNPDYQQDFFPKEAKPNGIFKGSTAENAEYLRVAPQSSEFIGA
- TEST_PROTOCOL: EGFR ELISA assay (in vitro kinase activity, EGFR captured from A431 cell lysate)
- Assay type: biochemical
- Design: concentration or dose not given beside the values
OBSERVABLE: Biochem EGFR %Inhibition (%)

* O=C1Nc2ccc(I)cc2C1=Cc1coc2ccccc2c1=O [10727/B07] | 46.5
* Cc1cc(O)cc(O)c1C=C1C(=O)Nc2ccc(Br)c(C)c21 [10720/C08] | -1.1
* Cc1c(Br)ccc2c1C(=Cc1cc3ccccc3nc1Cl)C(=O)N2 [10730/C08] | 24.3
* O=CN1CCN(c2ccc(C=C3C(=O)Nc4c(Br)cc(Br)cc43)cc2)CC1 [10725/A07] | 18.2
* CNS(=O)(=O)c1ccc2c(c1)C(=Cc1cccc([N+](=O)[O-])c1)C(=O)N2 [10719/D10] | -11.8

---

- Test system: MET
- TEST_PROTOCOL: MET biochemical kinase assay
- Design: species or system human; concentration or dose not given beside the values
- Source text: A met biochemical kinase assay may be performed for met generally as described above for other kinases by substituting that or the other kinases. […] Incorporation of phosphate into the captured receptors is detected with an anti-phosphotyrosine antibody conjugate with horse radish peroxidase using TMB as a substrate for colorimetric detection.
We begin with a simple list: items and their reported Met Kinase % Inhibition.
OBSERVABLE: Met Kinase % Inhibition (%)

• Cc1c(Br)ccc2c1C(=Cc1cc(Cl)cc(Br)c1O)C(=O)N2 [10727/C04] = 81.7
• O=C1Nc2ccc(S(=O)(=O)Nc3ccc(C(F)(F)F)cc3)cc2C1=Cc1c[nH]c2ccccc12 [10717/E06] = 24.8
• O=C1Nc2ccc(CCCl)cc2C1=Cc1ccc(Cl)c([N+](=O)[O-])c1 [10718/G08] = 17.5
• COc1ccc2[nH]cc(C=C3C(=O)Nc4ccc(S(=O)(=O)Nc5ccc(C(F)(F)F)cc5)cc43)c2c1 [10731/E09] = 27.0
• O=C1Nc2ccc(F)cc2C1=C1C(=O)Nc2ccc(I)cc21 [10726/B08] = 60.2
• COc1ccc(C=C2C(=O)Nc3ccc(CCCl)cc32)c(OC)c1OC [10730/G02] = 41.1
• COC(=O)c1[nH]c(C)c(C=C2C(=O)Nc3ccc(CCCl)cc32)c1C(=O)OC [10718/G07] = 52.0
• CNS(=O)(=O)c1ccc2c(c1)C(=Cc1ccc(O)c(OC)c1[N+](=O)[O-])C(=O)N2 [10733/D11] = 31.6
• O=C1Nc2ccc(CCCl)cc2C1=Cc1ccc(C(F)(F)F)cc1 [10722/G11] = 35.3
• O=C1Nc2c(Br)cc(Br)cc2C1=Cc1cccn1-c1ccc(Cl)cc1 [10724/A09] = 37.5
• Cc1c(Br)ccc2c1C(=Cc1ccc(Br)cc1)C(=O)N2 [10717/C08] = 27.3
• O=C1Nc2ccc(S(=O)(=O)N3CCOCC3)cc2C1=Cc1coc2ccc(Cl)cc2c1=O [10730/F06] = 56.5
• CNS(=O)(=O)c1ccc2c(c1)C(=Cc1cc(Br)c(O)c(C(C)(C)C)c1)C(=O)N2 [10721/D10] = 13.4
• CNS(=O)(=O)c1ccc2c(c1)C(=Cc1ccccc1O)C(=O)N2 [10720/D05] = 9.8
• CNS(=O)(=O)c1ccc2c(c1)C(=Cc1ccc(O)c(C)c1)C(=O)N2 [10723/D06] = 60.0
• CCc1ccc(C=C2C(=O)Nc3ccc(CCCl)cc32)s1 [10726/G10] = 26.8
• O=C1Nc2ccc(S(=O)(=O)Nc3ccc(C(F)(F)F)cc3)cc2C1=Cc1ccc([N+](=O)[O-])cc1 [10734/E06] = 50.6
• CNS(=O)(=O)c1ccc2c(c1)C(=Cc1ccc(C)o1)C(=O)N2 [10725/D04] = 55.1

---

- TEST_TARGET: EGFR (Homo sapiens)
- Construct: Add 7 ug A431 cell lysate per well (EGFR source); endogenous in cells; host or cells: A431
- TEST_PROTOCOL: EGFR ELISA assay (in vitro kinase activity, EGFR captured from A431 cell lysate)
- Format: biochemical
- Parameters: concentration or dose not given beside the values
We begin with a simple list: items and their reported Biochem EGFR %Inhibition.
OBSERVABLE: Biochem EGFR %Inhibition (%)

- O=C1Nc2c(Br)cc(Br)cc2C1=Cc1ccc2ccccc2c1O [10718/A04]: 27.3
- N#Cc1cccc(C=C2C(=O)Nc3ccc(S(=O)(=O)Nc4ccc(C(F)(F)F)cc4)cc32)c1 [10727/E08]: 25.6
- Cc1cc(C=C2C(=O)Nc3ccc(S(=O)(=O)N4CCOCC4)cc32)cc(C(C)(C)C)c1O [10726/F04]: 33.4
- O=C1Nc2ccc(CCCl)cc2C1=Cc1cccc(C(F)(F)F)c1F [10728/G07]: -12.3
- CNS(=O)(=O)c1ccc2c(c1)C(=Cc1c(C)cc(O)cc1O)C(=O)N2 [10720/D08]: -13.3

---

- TEST_TARGET: FLK-1 receptor (Mus musculus, UniProt P35918)
- Construct: expressed in transfected cells; host or cells: NIH3T3 C7#3
- TEST_PROTOCOL: FLK-1 ELISA (kinase activity of the FLK-1 receptor in FLK-1/NIH3T3 cells, VEGF stimulated)
- Assay type: cell-based
OBSERVABLE: Fik Kinase %Inhibition

• CC(=O)n1cc(C=C2C(=O)Nc3ccc(S(=O)(=O)Nc4ccc(C(F)(F)F)cc4)cc32)c2ccccc21 [10730/E05] = 8.7%
• O=C1Nc2ccc(S(=O)(=O)Nc3ccc(C(F)(F)F)cc3)cc2C1=Cc1c(Br)cnn1-c1ccc(Cl)cc1 [10725/E10] = 9.3%
• O=C1Nc2ccc(I)cc2C1=Cc1ccc(F)cc1 [10717/B05] = 1.0%
• CNS(=O)(=O)c1ccc2c(c1)C(=Cc1ccc(O)cc1O)C(=O)N2 [10723/D08] = -4.5%
• O=C1Nc2ccc(S(=O)(=O)Nc3ccc(C(F)(F)F)cc3)cc2C1=CC1C=CCCC1 (centres unmarked) [10729/E11] = 70.9%
• CCOc1cc(C=C2C(=O)Nc3c(Br)cc(Br)cc32)ccc1O [10720/A09] = 8.1%
• Cc1cc(C=C2C(=O)Nc3ccc(CCCl)cc32)ccc1O [10723/G06] = 14.1%
• O=C1Nc2ccc(S(=O)(=O)N3CCOCC3)cc2C1=Cc1cc(Cl)cc(Cl)c1O [10734/F03] = 4.2%
• CNS(=O)(=O)c1ccc2c(c1)C(=Cc1ccc(O)c([N+](=O)[O-])c1)C(=O)N2 [10724/D03] = 0.1%
• CCOc1cc(C=C2C(=O)Nc3ccc(S(=O)(=O)Nc4ccc(C(F)(F)F)cc4)cc32)ccc1O [10720/E09] = 11.5%
• COc1ccc(C=C2C(=O)Nc3ccc(S(=O)(=O)Nc4ccc(C(F)(F)F)cc4)cc32)cc1C(C)(C)C [10732/E05] = 18.7%
• CCc1ccc(C=C2C(=O)Nc3ccc(CCCl)cc32)o1 [10724/G10] = 7.0%
• N#Cc1cccc(C=C2C(=O)Nc3ccc(S(=O)(=O)Nc4ccc(C(F)(F)F)cc4)cc32)c1 [10727/E08] = 14.2%
• CC(=O)Oc1ccc(C=C2C(=O)Nc3ccc(I)cc32)cc1OC(C)=O [10723/B05] = -15.4%
• COc1c(Br)cc(C=C2C(=O)Nc3ccc(CCCl)cc32)cc1C(C)(C)C [10732/G07] = 4.6%
• CNS(=O)(=O)c1ccc2c(c1)C(=Cc1ccc(N(C)C)cc1OC)C(=O)N2 [10728/D05] = 4.9%
• O=C1Nc2ccc(CCCl)cc2C1=Cc1ccc(F)cc1F [10722/G06] = 7.4%
